The entries below come with measured IC50 (μg/ml) against E. coli values attached.
- System: E. coli ATCC 25922
- Format: cell-based
- particulars: individual polypeptides
Where no end group is shown, it is not given here.
Your answer should be a plain number; it is taken to be in µg/mL.

Worked examples follow.
YKLLKLLLPKLKGLLFKL-NH2 [SEQ ID NO: 3, YKLLKLLLPKLKGLLFKL] :: 2.40
YKLLKKLLKKLKKLLKKL-NH2 [SEQ ID NO: 9, YKLLKKLLKKLKKLLKKL-NH2, reference compound] :: 9
YKLLKLLLPKLKGLLIKL-NH2 [SEQ ID NO: 4, YKLLKLLLPKLKGLLIKL] :: 3.61

Need IC50 (μg/ml) against E. coli, item YKLLKLLLPKLKPLLPKL-NH2 [SEQ ID NO: 8, YKLLKLLLPKLKPLLPKL]
3.14

One more substance: YKLLKLLLPKLKPLLFKL-NH2 [SEQ ID NO: 6, YKLLKLLLPKLKPLLFKL]
1.98

Same lookup for YKLLKLLLPKLKPLLIKL-NH2 [SEQ ID NO: 7, YKLLKLLLPKLKPLLIKL] , please.
1.87

Moving on to the next substance: YKLLKLLLPKLKGLLPKL-NH2 [SEQ ID NO: 5, YKLLKLLLPKLKGLLPKL]
2.65

Attribution: patent US5582997A
